Each entry below carries its recorded pIC50.
experimental.target: Neutrophil collagenase (Homo sapiens, UniProt P22894)
Sequence (P22894 whole entry): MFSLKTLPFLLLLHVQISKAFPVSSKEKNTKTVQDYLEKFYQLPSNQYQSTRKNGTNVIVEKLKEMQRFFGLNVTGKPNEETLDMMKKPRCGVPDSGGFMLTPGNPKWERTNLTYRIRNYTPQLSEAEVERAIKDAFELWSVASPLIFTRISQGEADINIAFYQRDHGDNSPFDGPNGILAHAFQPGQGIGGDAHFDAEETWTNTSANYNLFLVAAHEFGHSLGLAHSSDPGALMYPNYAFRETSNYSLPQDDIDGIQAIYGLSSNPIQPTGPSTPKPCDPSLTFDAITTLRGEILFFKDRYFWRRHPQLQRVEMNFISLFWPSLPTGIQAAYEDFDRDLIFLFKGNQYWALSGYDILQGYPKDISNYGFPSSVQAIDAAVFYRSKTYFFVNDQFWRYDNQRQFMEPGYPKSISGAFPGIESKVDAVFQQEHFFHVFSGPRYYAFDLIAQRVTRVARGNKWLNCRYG
test.description: Inhibition of human recombinant MMP-8 incubated for 30 mins by fluorescence based analysis
Please note pIC50 is a logarithmic value: minus log10 of concentration in mol/L. Answer with that number alone.

Observe how each entry below is paired with its result.
In: Dear colleague, I am looking for the recorded pIC50 of the following compound: COc1ccc(CNC(=O)c2nc3ccc(F)c(OCCc4ccc(C(=O)O)cc4)c3c(=O)[nH]2)cc1
Out: 5.85

In: Dear colleague, I am looking for the recorded pIC50 of the following compound: Cc1cc(CNC(=O)c2nc3ccc(F)c(OCCF)c3c(=O)[nH]2)ccc1F
Out: 5.92

In: Dear colleague, I am looking for the recorded pIC50 of the following compound: COc1ccc(CNC(=O)c2nc3ccc(F)c(OCCc4ccc(O)cc4)c3c(=O)[nH]2)cc1
Out: 5.82

As a next step, examine the compound that follows.
In: Dear colleague, I am looking for the recorded pIC50 of the following compound: COc1ccc(CCOc2c(F)ccc3nc(C(=O)NCc4ccc(F)c(C)c4)[nH]c(=O)c23)cc1
Out: 6.11

* * *

test.description: Drug distribution in western atherogenic diet fed ApoE-/- mouse myocardium assessed as myocardial retention at […], iv administered as bolus injection measured for 60 mins by PET analysis
Type: ADME, organism-based
condition.label: in vivo, 1 h
property.name: Drug uptake

Observe how each entry below is paired with its result.
In: Dear colleague, I am looking for the recorded Drug uptake of the following compound: Cc1cc(CNC(=O)c2nc3ccc(F)c(OCCc4ccc(O[11CH3])cc4)c3c(=O)[nH]2)ccc1F
Out: < 0.5 %ID/cc

In: Dear colleague, I am looking for the recorded Drug uptake of the following compound: Cc1cc(CNC(=O)c2cc(C(=O)NCc3ccc(OCC[18F])cc3)ncn2)ccc1F
Out: ~ 5 %ID/cc

In: Dear colleague, I am looking for the recorded Drug uptake of the following compound: Cc1cc(CNC(=O)c2nc3ccc(F)c(OCC[18F])c3c(=O)[nH]2)ccc1F
Out: < 0.5 %ID/cc

As a next step, examine the compound that follows.
In: Dear colleague, I am looking for the recorded Drug uptake of the following compound: [11CH3]Oc1cccc(CNC(=O)c2nc3ccc(F)c(OCCc4ccc(C(=O)O)cc4)c3c(=O)[nH]2)c1
Out: < 0.5 %ID/cc

* * *

Each entry below carries its recorded pIC50.
experimental.target: Stromelysin-2 (Homo sapiens, UniProt P09238)
Sequence (P09238 whole entry): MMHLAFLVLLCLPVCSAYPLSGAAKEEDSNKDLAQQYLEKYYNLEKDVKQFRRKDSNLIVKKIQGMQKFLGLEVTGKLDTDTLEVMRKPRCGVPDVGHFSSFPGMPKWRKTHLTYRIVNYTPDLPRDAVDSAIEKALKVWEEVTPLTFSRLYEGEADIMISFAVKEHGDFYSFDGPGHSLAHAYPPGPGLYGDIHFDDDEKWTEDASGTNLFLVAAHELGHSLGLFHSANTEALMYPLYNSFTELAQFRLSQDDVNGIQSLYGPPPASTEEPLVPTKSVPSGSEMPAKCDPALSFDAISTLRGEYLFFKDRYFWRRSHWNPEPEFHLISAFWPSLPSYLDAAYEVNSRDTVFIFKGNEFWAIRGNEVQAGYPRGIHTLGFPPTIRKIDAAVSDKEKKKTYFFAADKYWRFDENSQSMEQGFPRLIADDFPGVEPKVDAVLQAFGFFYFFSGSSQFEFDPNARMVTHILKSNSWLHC
test.description: Inhibition of human recombinant MMP-10 using […]-Pro-Lys-Pro-Val-Glu-Nval-Trp-Arg-Lys(Dnp)-NH2 as substrate preincubated for 30 mins followed by substrate addition by fluorescence based analysis
Please note pIC50 is a logarithmic value: minus log10 of concentration in mol/L. Answer with that number alone.

Observe how each entry below is paired with its result.
In: Dear colleague, I am looking for the recorded pIC50 of the following molecule: Cc1cc(CNC(=O)c2nc3ccc(F)c(OCCc4ccc(C(=O)O)cc4)c3c(=O)[nH]2)ccc1F
Out: 5.60

In: Dear colleague, I am looking for the recorded pIC50 of the following molecule: O=C(O)c1ccc(CCOc2c(F)ccc3nc(C(=O)NCc4cccc(O)c4)[nH]c(=O)c23)cc1
Out: 5.55

Next:
In: Dear colleague, I am looking for the recorded pIC50 of the following molecule: Cc1cc(CNC(=O)c2nc3ccc(F)c(OCCc4ccc(O)cc4)c3c(=O)[nH]2)ccc1F
Out: 5.16
